Test: antimalarial activity against Dd2 strain (AID 2302);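 further: 0% = DMSO untreated growth and 100% = chloroquine plus artemisinin killed control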
Settings: P. falciparum Dd2 in RBCs, LDH growth readout, 72 h; at 2 µM; stronger effect = higher value
VALUE KIND: growth inhibition (%)
Numbers only; they are read as %.

Exercise: Recorded growth inhibition for c1cn(CCCNc2ncc(-c3ccsc3)c(-c3nccs3)n2)cn1 , please?
Key: 51

Exercise: Same for Cc1cccc2[nH]c(-c3cccc(-c4cccc(CNCCNC(=O)c5ccnn5C)c4)c3)nc12
Key: 71

Exercise: Same for N=C(N)c1ccc(C(=O)Nc2cccc(C(=N)N)c2)cc1
Key: 82

Exercise: Same for O=C(Nc1cccc(-c2ccc(-c3nc4ccc(C(F)(F)F)cc4[nH]3)cc2)c1)Nc1ccc(Cl)c(Cl)c1
Key: 51

Exercise: Same for COc1ccc2nc(C)cc(Nc3ccc(Oc4ccc5ccccc5c4Cl)c(Cl)c3)c2c1
Key: 98

Exercise: Same for CC(=O)NC(c1cccs1)c1cc(Cl)c2cccnc2c1O (stereo not drawn)
Key: 93

Exercise: Same for Cc1cc(NC(=O)c2cccs2)ccc1OC1CCN(Cc2ccccc2)CC1
Key: 91

Exercise: Same for CC(C)n1nc(C(=O)N2CCN(c3ccccc3)CC2)c2ccccc2c1=O
Key: 3

Exercise: Same for C[C@H](Cc1ccc(OCCCCOc2ccc(C[C@@H](C)NC[C@H](O)c3cccc(Cl)c3)cc2)cc1)NC[C@H](O)c1cccc(Cl)c1
Key: 92

Exercise: Same for NC1=NC(c2ccccc2)(c2ccccc2)C(=O)N1Cc1ccc(-c2ccncc2)cc1
Key: 74

Exercise: Same for COc1ccc2nccc([C@@H](O)CN3CCC(NS(=O)(=O)c4cc5c(cc4Cl)SCC(=O)N5)CC3)c2c1
Key: 0

Exercise: Same for CCC(CCON1C(N)=NC(N)=NC1(C)C)c1ccc(Cl)cc1 (stereo not drawn)
Key: 95

Exercise: Same for CCOc1ccc(Nc2nc(N)c3ccccc3n2)cc1
Key: 6

Exercise: Same for COC(=O)c1c(C#N)c(OC)cc(O)c1CSC[C@@H](CN1CCCCC1)Nc1nc(-c2ccc([N+](=O)[O-])cc2)cs1
Key: 77

Exercise: Same for CC1CCN(c2nc(C(=O)Nc3ccc(F)cc3C(F)(F)F)c(C(C)C)s2)CC1
Key: 66

Exercise: Same for CCCCN1CCN(Cc2cccc(NC(=O)c3ccc(Cl)c(Cl)c3)c2)CC1
Key: 24

Exercise: Same for Nc1ccc2[nH]cc(C3CCN(CC4CCN(C(=O)/C=C/c5ccc(Cl)c(Cl)c5)CC4)CC3)c2n1
Key: 97

Exercise: Same for CC(C)(C)c1ccc(-c2cc3c(ccc4nc(N)nc(N)c43)[nH]2)cc1
Key: 100

Exercise: Same for CN(C)C1CCN(CC#Cc2cc3ncnc(Nc4ccc(OCc5cccc(F)c5)c(Cl)c4)c3s2)CC1
Key: 5

Exercise: Same for Cc1cccc2[nH]c(-c3ccc(-c4cccc(CNCCN5CCNCC5)c4)cc3)nc12
Key: 2

Exercise: Same for CN1CCCN(c2ccnc3cc4c(cc23)N(C(=O)c2ccc(Cl)cc2)CC4)CC1
Key: 0

Exercise: Same for CCN(CC)CCN(Cc1ccc(-c2ccc(C(F)(F)F)cc2)cc1)C(=O)Cn1c(CCc2cccc(F)c2F)cc(=O)cc1-c1ccccc1
Key: 64

Exercise: Same for c1ccc(-c2cc(NCCCCNc3cc(-c4ccccc4)nc4ccccc34)c3ccccc3n2)cc1
Key: 97

Exercise: Same for c1ccc2oc(-c3cc4ccncc4cc3OC3CCNCC3)cc2c1
Key: 96

Exercise: Same for CCCCCCNC(=O)C1Cc2c([nH]c3cc(Cl)ccc23)C2(CCN(Cc3ccccc3)CC2)N1 (stereo not drawn)
Key: 56

Exercise: Same for CC(=O)Nc1cc(C(=O)Nc2ccc(C3=NCCN3)cc2)ccc1C(=O)Nc1ccc(C2=NCCN2)cc1
Key: 92

Exercise: Same for O=C(/C=C/c1ccc(Cl)c(Cl)c1)NCCCCCCN1CCCN(C(=O)Nc2ccc(F)c(F)c2)CC1
Key: 2

Exercise: Same for Cc1cccc2[nH]c(-c3cccc(-c4cccc(NC(=O)Nc5ccc(Cl)cc5)c4)c3)nc12
Key: 94

Exercise: Same for CCc1ccc(NC(=O)c2cccc(CN3CCCN(Cc4ccc(OC)cc4)CC3)c2)cc1
Key: -6

Exercise: Same for CCNc1cc(C)nc(Nc2ccc(NC(=O)c3ccccc3Cl)cc2)n1
Key: 52

Exercise: Same for NCc1ccc(CNCc2cccc(-c3cccc(-c4nc5ccc(F)cc5[nH]4)c3)c2)cc1
Key: 34

Exercise: Same for CC(C)(C)c1ccc(NC(=O)c2ccc(CN3CCCN(Cc4cccc(C#N)c4)CC3)cc2)cc1
Key: 12

Exercise: Same for Clc1cccc(C23N=C(Nc4nc5ccccc5[nH]4)NC2(c2ccccc2)NC(Nc2nc4ccccc4[nH]2)=N3)c1 (stereo not drawn)
Key: 88

Exercise: Same for CNS(=O)(=O)c1ccc(NC(=O)c2cc(-c3cccnc3)nc3ccc(Br)cc23)cc1
Key: 55

Exercise: Same for COc1ccc2ncc(C#N)c(CCN3[C@@H]4CC[C@H]3CC(NCc3ccc5c(n3)NC(=O)CS5)C4)c2c1 (stereo partly drawn)
Key: 27

Exercise: Same for O=C(Nc1cccc(CN2CCCN(CC3CC3)CC2)c1)c1ccc(-c2ccccc2)cc1
Key: 5

Exercise: Same for C=CCc1cc(Br)ccc1OCCCON1C(N)=NC(N)=NC1(C)C
Key: 97

Exercise: Same for O=C(Nc1ccccc1Oc1ccccc1)NC1CCN(c2ccnc3cc(Cl)ccc23)C1 (stereo not drawn)
Key: 74
